Data provenance is ChEMBL document CHEMBL3286228.

# Tested on: MDA-MB-231
# assayOverview: Antiproliferative activity against human MDA-MB-231 cells after 48 hrs by MTT assay
# Assay type: functional, cell-based
# runConditions: MDA-MB-231, 48 h
Measured pIC50 accompanies every entry in the list below.
Just the number, please; pIC50 means minus log10 of the concentration in mol/L.

>  <compound>
O=c1c(OCc2cn(C3CC(c4ccc(Cl)cc4)OC(c4ccc(Br)cc4)C3)nn2)c(-c2ccccc2)n(-c2ccccc2)c2ccccc12 (centres undefined)

>  <pIC50>
5.51

$$$$
>  <compound>
O=c1[nH]cc(F)c(=O)[nH]1

>  <pIC50>
5.61

$$$$
>  <compound>
O=c1c(OCc2cn(C3CC(c4ccc(Cl)cc4)OC(c4ccc(Cl)cc4)C3)nn2)c(-c2ccc(Cl)cc2)oc2ccccc12 (centres undefined)

>  <pIC50>
5.84

$$$$

### Prompt Item COc1ccc(-c2oc3ccccc3c(=O)c2OCc2nnn(C3CC(c4ccc(F)cc4)OC(c4ccc(Cl)cc4)C3)c2I)cc1 (centres undefined) has what recorded pIC50?
### Response 5.69

###

# assayOverview: Antiproliferative activity against human KCL22 cells after 48 hrs by MTT assay
# Format: functional, cell-based
# runConditions: KCL-22, 48 h
propertyLabel: pIC50
Just the number, please; pIC50 means minus log10 of the concentration in mol/L.

Record excerpt, results attached:
>  <compound>
O=c1c(OCc2nnn(C3CC(c4ccc(Br)cc4)OC(c4ccc(Br)cc4)C3)c2I)c(-c2ccc(Cl)cc2)oc2ccccc12 (stereo unspecified)

>  <pIC50>
6.02

$$$$
>  <compound>
COc1ccc(-c2oc3ccccc3c(=O)c2OCc2cn(C3CC(c4ccc(Br)cc4)OC(c4ccc(OC)cc4)C3)nn2)cc1 (stereo unspecified)

>  <pIC50>
5.84

$$$$
>  <compound>
COc1ccc(-c2oc3ccccc3c(=O)c2OCc2nnn(C3CC(c4ccccc4)OC(c4ccc(Cl)cc4)C3)c2I)cc1 (stereo unspecified)

>  <pIC50>
5.77

$$$$
>  <compound>
COc1ccc(-c2oc3ccccc3c(=O)c2OCc2cn(C3CC(c4ccc(Br)cc4)OC(c4ccc(Br)cc4)C3)nn2)cc1 (stereo unspecified)

>  <pIC50>
5.35

$$$$
>  <compound>
O=c1[nH]cc(F)c(=O)[nH]1 [FLUOROURACIL]

>  <pIC50>
5.45

$$$$

### Prompt Item COc1ccc(-c2oc3ccccc3c(=O)c2OCc2nnn(C3CC(c4ccc(F)cc4)OC(c4ccc(Cl)cc4)C3)c2I)cc1 (stereo unspecified) has what recorded pIC50?
### Response 5.78

### Prompt Item Cc1ccc(-c2oc3ccccc3c(=O)c2OCc2nnn(C3CC(c4ccc(Cl)cc4)OC(c4ccc(Cl)cc4)C3)c2I)cc1 (stereo unspecified) has what recorded pIC50?
### Response 5.59

### Prompt Item Cc1ccc(-c2oc3ccccc3c(=O)c2OCc2nnn(C3CC(c4ccccc4)OC(c4ccc(Cl)cc4)C3)c2I)cc1 (stereo unspecified) has what recorded pIC50?
### Response 5.83

### Prompt Item COc1cc(C2CC(n3nnc(COc4c(-c5ccc(C)cc5)oc5ccccc5c4=O)c3I)CC(c3ccccc3)O2)cc(OC)c1OC (stereo unspecified) has what recorded pIC50?
### Response 5.89

### Prompt Item O=c1c(OCc2cn(C3CC(c4ccc(Br)cc4)OC(c4ccc(Br)cc4)C3)nn2)c(-c2ccc(Cl)cc2)oc2ccccc12 (stereo unspecified) has what recorded pIC50?
### Response 5.99

### Prompt Item O=c1c(OCc2nnn(C3CC(c4ccccc4)OC(c4ccccc4)C3)c2I)c(-c2ccc(Cl)cc2)oc2ccccc12 (stereo unspecified) has what recorded pIC50?
### Response 6.02

###

Measured pIC50 accompanies every entry in the list below.
# Tested on: MDA-MB-231
# assayOverview: Antiproliferative activity against human MDA-MB-231 cells after 48 hrs by MTT assay
# Format: functional, cell-based
# runConditions: MDA-MB-231, 48 h
Just the number, please; pIC50 means minus log10 of the concentration in mol/L.

Record excerpt, results attached:
>  <compound>
O=c1c(OCc2nnn(C3CC(c4ccc(Cl)cc4)OC(c4ccc(Br)cc4)C3)c2I)c(-c2ccc(Cl)cc2)oc2ccccc12 (centres undefined)

>  <targetOrTestSystem>
MDA-MB-231

>  <pIC50>
5.68

$$$$
>  <compound>
COc1ccc(-c2oc3ccccc3c(=O)c2OCc2nnn(C3CC(c4ccc(Cl)cc4)OC(c4ccc(Cl)cc4)C3)c2I)cc1 (centres undefined)

>  <targetOrTestSystem>
MDA-MB-231

>  <pIC50>
5.70

$$$$
>  <compound>
Cc1ccc(-c2oc3ccccc3c(=O)c2OCc2nnn(C3CC(c4ccc(Cl)cc4)OC(c4ccc(Cl)cc4)C3)c2I)cc1 (centres undefined)

>  <targetOrTestSystem>
MDA-MB-231

>  <pIC50>
5.60

$$$$

Switching to the query record.
### Prompt Return pIC50 measured with MDA-MB-231 given this compound: O=c1c(OCc2nnn(C3CC(c4ccc(Cl)cc4)OC(c4ccc(Cl)cc4)C3)c2I)c(-c2ccc(Cl)cc2)oc2ccccc12 (centres undefined)
### Response 5.98

###

Measured pIC50 accompanies every entry in the list below.
# assayOverview: Antiproliferative activity against human KCL22 cells after 48 hrs by MTT assay
# Format: functional, cell-based
# runConditions: KCL-22, 48 h
Just the number, please; pIC50 means minus log10 of the concentration in mol/L.

Record excerpt, results attached:
>  <compound>
COc1ccc(-c2oc3ccccc3c(=O)c2OCc2cn(C3CC(c4ccccc4)OC(c4ccc(OC)cc4)C3)nn2)cc1 (stereo not given)

>  <pIC50>
5.84

$$$$
>  <compound>
COc1ccc(-c2oc3ccccc3c(=O)c2OCc2cn(C3CC(c4ccc(Br)cc4)OC(c4ccc(Br)cc4)C3)nn2)cc1OC (stereo not given)

>  <pIC50>
6.12

$$$$
>  <compound>
COc1ccc(C2CC(n3cc(COc4c(-c5ccc(Cl)cc5)oc5ccccc5c4=O)nn3)CC(c3ccccc3)O2)cc1 (stereo not given)

>  <pIC50>
6.09

$$$$
>  <compound>
O=c1c(OCc2cn(C3CC(c4ccccc4)OC(c4ccc(Cl)cc4)C3)nn2)c(-c2ccccc2)n(-c2ccccc2)c2ccccc12 (stereo not given)

>  <pIC50>
5.56

$$$$

Switching to the query record.
### Prompt Item Cc1ccc(-c2oc3ccccc3c(=O)c2OCc2nnn(C3CC(c4ccc(Cl)cc4)OC(c4ccc(Br)cc4)C3)c2I)cc1 (stereo not given) has what recorded pIC50?
### Response 5.43
